# Test system: U2OS
# experimental_protocol: Multiplex assay against U2OS
# Assay type: toxicity, cell-based
# test_parameters: human, 48 h, 1 µM, compound concentration 1 uM, replicate 2
# reported Population Mitochondria Different-Phenotype (%); entries follow
endpoint_name: Population Mitochondria Different-Phenotype (%)

>>> recorded_measurement("CN1CCN(c2nc3cc(C(F)(F)F)ccc3n3cccc23)CC1.O=C(O)/C=C\\C(=O)O.O=C(O)/C=C\\C(=O)O")
5
>>> recorded_measurement("CSc1ccccc1N1CCN(CCCCCC(=O)NC2CCCc3ccccc32)CC1.Cl (configuration not stated)")
63
>>> recorded_measurement("Cc1ccccc1C(=O)Nc1ccc(C(=O)N2CCCC(N(C)C)c3ccccc32)cc1.Cl (configuration not stated)")
5
>>> recorded_measurement("CN1CCN2c3ncccc3Cc3ccccc3C2C1 (configuration not stated)")
4
>>> recorded_measurement("COc1c(C)cc(NC(=O)c2nn(Cc3ccc(F)cc3)c3c2CN(C(=O)c2ccc[nH]2)C[C@]3(C)C(N)=O)cc1C")
4
>>> recorded_measurement("CCNC1(C(N)=O)CCN(c2ncnc3c2nc(-c2ccccc2Cl)n3-c2ccc(Cl)cc2)CC1")
10
>>> recorded_measurement("O=C(NCCO)c1cccc(-c2cc(Nc3ccc(OC(F)(F)F)cc3)ncn2)c1")
4

* * *

# reported Population Hoechst High Intensity Objects (%); entries follow
# Test system: Fibroblast
# experimental_protocol: Multiplex assay against human fibroblast
# Format: toxicity, cell-based
# test_parameters: 12 h, 10 µM, compound concentration 10 uM, replicate 1
endpoint_name: Population Hoechst High Intensity Objects (%)

>>> recorded_measurement("C[C@@H]1C[C@H]2[C@@H]3CCC4=CC(=O)C=C[C@]4(C)[C@@]3(F)[C@@H](O)C[C@]2(C)[C@@]1(O)C(=O)CO")
2
>>> recorded_measurement("Cc1ccc(/C(=C\\CN2CCCC2)c2ccccn2)cc1")
2
>>> recorded_measurement("COc1cc(C(=O)N(CCCc2ccccc2)Cc2ccc(CC(=O)O)cc2)cc(OC)c1C")
2

* * *

# reported Population Pyknosed Nuclei (%); entries follow
# Test system: Fibroblast
# experimental_protocol: Multiplex assay against human fibroblast
# Format: toxicity, cell-based
# test_parameters: 48 h, 1 µM, compound concentration 1 uM, replicate 1
endpoint_name: Population Pyknosed Nuclei (%)

>>> recorded_measurement("O=S(=O)(c1ccccc1)c1cnc2c(N3CCNCC3)cccc2c1 [INTEPIRDINE]")
7
>>> recorded_measurement("O=C(NCCO)c1cccc(-c2cc(Nc3ccc(OC(F)(F)F)cc3)ncn2)c1")
13
>>> recorded_measurement("CN(C)CCCc1cc(C(=O)Nc2ccc(-c3ccncc3)cc2)ccc1O.Cl.Cl")
12
>>> recorded_measurement("O=C1COc2nccc(-c3ccccc3F)c2CN1Cc1cc(C(F)(F)F)cc(C(F)(F)F)c1")
8
>>> recorded_measurement("CSc1ccccc1N1CCN(CCCCCC(=O)NC2CCCc3ccccc32)CC1.Cl (stereo not given)")
17
>>> recorded_measurement("COc1ccc2c(c1)C(C(=O)N(Cc1ccc(N(C)C)cc1)c1ccc(C(C)C)cc1)CCC2.Cl (stereo not given)")
6
>>> recorded_measurement("CCCN1CCC[C@@H]2Cc3n[nH]cc3C[C@H]21.Cl [QUINPIROLE HYDROCHLORIDE]")
14
>>> recorded_measurement("COc1c(C)cc(NC(=O)c2nn(Cc3ccc(F)cc3)c3c2CN(C(=O)c2ccc[nH]2)C[C@]3(C)C(N)=O)cc1C")
8
>>> recorded_measurement("C[C@@H]1C[C@H]2[C@@H]3CCC4=CC(=O)C=C[C@]4(C)[C@@]3(F)[C@@H](O)C[C@]2(C)[C@@]1(O)C(=O)CO")
24
>>> recorded_measurement("Cc1ccc(C(C)(O)c2nc3ccccc3s2)c(C)c1 (stereo not given)")
9
>>> recorded_measurement("Oc1c(CN2CCN(c3ccccn3)CC2)cc(Cl)c2cccnc12")
14
>>> recorded_measurement("Cc1ccc(/C(=C\\CN2CCCC2)c2ccccn2)cc1")
8
>>> recorded_measurement("Cc1ccccc1C(=O)Nc1ccc(C(=O)N2CCCC(N(C)C)c3ccccc32)cc1.Cl (stereo not given)")
7
>>> recorded_measurement("CCOc1c2c(c(OCC)c3ncccc13)CN(c1ccc(CS(=O)(=O)NC(=O)Cc3ccccc3OC)cc1C)C2=O")
15
>>> recorded_measurement("CC(=O)NCCc1c(Cc2ccccc2)[nH]c2ccccc12")
12
>>> recorded_measurement("COc1cc(NC(=O)CCN2CCC(OC(=O)Nc3ccccc3-c3ccccc3)CC2)c(Cl)cc1CNC[C@H](O)c1ccc(O)c2[nH]c(=O)ccc12")
22
>>> recorded_measurement("CNC[C@H](O)c1ccc(O)c(O)c1 [EPINEPHRINE]")
15
>>> recorded_measurement("CC1(COc2ccc3c(c2)ncn3-c2ccc3cccc(N4CCC(N)CC4)c3n2)COC1")
7
>>> recorded_measurement("N#Cc1c(N)nc(SCc2csc(-c3ccc(Cl)cc3)n2)c(C#N)c1-c1ccc(OCCO)cc1")
6
>>> recorded_measurement("CN1CCN(c2nc3cc(C(F)(F)F)ccc3n3cccc23)CC1.O=C(O)/C=C\\C(=O)O.O=C(O)/C=C\\C(=O)O")
11
>>> recorded_measurement("O=C(O)c1cc2ccccc2c(Cc2c(O)c(C(=O)O)cc3ccccc23)c1O")
8
>>> recorded_measurement("C[C@H](NC(=O)c1c(C(F)F)nn(C)c1Oc1cccc(C(F)(F)F)c1)c1ccc(C(=O)O)cc1")
7
>>> recorded_measurement("CC[C@H]1OC(=O)[C@H](C)[C@@H](O[C@H]2C[C@@](C)(OC)[C@@H](O)[C@H](C)O2)[C@H](C)[C@@H](O[C@@H]2O[C@H](C)C[C@H](N(C)C)[C@H]2O)[C@@]2(C)CC(C)=C(O2)[C@H](C)[C@@H](O)[C@]1(C)O")
11
>>> recorded_measurement("CCNC1(C(N)=O)CCN(c2ncnc3c2nc(-c2ccccc2Cl)n3-c2ccc(Cl)cc2)CC1")
12
>>> recorded_measurement("CCCC(CCC)C(=O)O")
14
>>> recorded_measurement("O=C(NCC(=O)N1CC[C@H](N[C@H]2CC[C@@](O)(c3ccc(-c4ncccn4)cn3)CC2)C1)c1cccc(C(F)(F)F)c1")
24
>>> recorded_measurement("CC(C)(C)c1ccc(S(=O)(=O)Nc2ccc(Cl)cc2C(=O)c2cc[n+]([O-])cc2)cc1")
12
>>> recorded_measurement("CN(C)c1ccnc2sc3c(=O)n(N4CCCCCC4)cnc3c12")
10
>>> recorded_measurement("CN1CCN2c3ncccc3Cc3ccccc3C2C1 (stereo not given)")
11
>>> recorded_measurement("Cc1ccc(F)cc1C(=O)Nc1ccc(C(=O)N2Cc3cccn3Cc3ccccc32)c(Cl)c1")
13

* * *

# Tested on: HEK-293T
# experimental_protocol: Multiplex assay against HEK293T
# Assay type: toxicity, cell-based
# test_parameters: human, 24 h, 1 µM, compound concentration 1 uM, replicate 2
endpoint_name: Population Mitochondria Different-Phenotype (%)

>>> recorded_measurement("Oc1c(CN2CCN(c3ccccn3)CC2)cc(Cl)c2cccnc12")
40
>>> recorded_measurement("CNC[C@H](O)c1ccc(O)c(O)c1 [EPINEPHRINE]")
41
>>> recorded_measurement("O=C(O)c1cc2ccccc2c(Cc2c(O)c(C(=O)O)cc3ccccc23)c1O")
39
>>> recorded_measurement("O=C1COc2nccc(-c3ccccc3F)c2CN1Cc1cc(C(F)(F)F)cc(C(F)(F)F)c1")
39

* * *

# System: U2OS
# experimental_protocol: Multiplex assay against U2OS
# Type: toxicity, cell-based
# test_parameters: human, 48 h, 1 µM, compound concentration 1 uM, replicate 1
# reported Population Mitotic Cells (%); entries follow
endpoint_name: Population Mitotic Cells (%)

>>> recorded_measurement("CC1(COc2ccc3c(c2)ncn3-c2ccc3cccc(N4CCC(N)CC4)c3n2)COC1")
12
>>> recorded_measurement("CNC[C@H](O)c1ccc(O)c(O)c1 [EPINEPHRINE]")
12
>>> recorded_measurement("Cl.Clc1ccc2nsnc2c1NC1=NCCN1 [TIZANIDINE HYDROCHLORIDE]")
13
>>> recorded_measurement("CCCn1c(=O)c2[nH]c(C3CCCC3)nc2n(CCC)c1=O")
13
>>> recorded_measurement("CSc1ccccc1N1CCN(CCCCCC(=O)NC2CCCc3ccccc32)CC1.Cl (configuration not stated)")
35
>>> recorded_measurement("Cc1ccc(C(C)(O)c2nc3ccccc3s2)c(C)c1 (configuration not stated)")
11
>>> recorded_measurement("COc1ccc2c(c1)C(C(=O)N(Cc1ccc(N(C)C)cc1)c1ccc(C(C)C)cc1)CCC2.Cl (configuration not stated)")
20
>>> recorded_measurement("COc1cc(NC(=O)CCN2CCC(OC(=O)Nc3ccccc3-c3ccccc3)CC2)c(Cl)cc1CNC[C@H](O)c1ccc(O)c2[nH]c(=O)ccc12")
17
>>> recorded_measurement("CC(C)(C)c1ccc(S(=O)(=O)Nc2ccc(Cl)cc2C(=O)c2cc[n+]([O-])cc2)cc1")
17
>>> recorded_measurement("O=C1COc2nccc(-c3ccccc3F)c2CN1Cc1cc(C(F)(F)F)cc(C(F)(F)F)c1")
15
>>> recorded_measurement("Oc1c(CN2CCN(c3ccccn3)CC2)cc(Cl)c2cccnc12")
5
>>> recorded_measurement("N#Cc1c(N)nc(SCc2csc(-c3ccc(Cl)cc3)n2)c(C#N)c1-c1ccc(OCCO)cc1")
20
